B1: KLHL14 (parent)
chain: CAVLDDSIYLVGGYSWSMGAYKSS

Variants of: B1
Assay: protein stability index of a GFP-peptide fusion (GPS, HEK-293T) (PSI 1-6); higher = more stable;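 further: lentivirally expressed fusions sorted by FACS into six bins by GFP to DsRed ratio, PSI derived from sequencing read proportions per bin multiplied by bin number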
Conditions: c terminus: a fixed tail appended
MEASURE_NAME: protein stability index

>>> value("CPVLDDSIYLVGGYSWSMGAYKSS [A2P]")
1.61
>>> value("CFVLDDSIYLVGGYSWSMGAYKSS [A2F]")
2.84
>>> value("CAVLDDSIYLVGPYSWSMGAYKSS [G13P]")
1.73
>>> value("CAVWDDSIYLVGGYSWSMGAYKSS [L4W]")
1.6
>>> value("CAVLDDSIYLVGGYSWSMGADKSS [Y21D]")
2.43
>>> value("CAVLDDSIYLVGGYSWSMGAYKSC [S24C]")
2.32
>>> value("CAVLDDSIYLVGGYSWTMGAYKSS [S17T]")
2.27
>>> value("CAVLDDSIYLVGGYSWSPGAYKSS [M18P]")
1.62

Req: For the variant CAVGDDSIYLVGGYSWSMGAYKSS [L4G] , what protein stability index is on record?
Resp: 1.55

Req: Next record, please: CAVLDDSMYLVGGYSWSMGAYKSS [I8M]
Resp: 2.62

Req: Next record, please: CAVLDDSITLVGGYSWSMGAYKSS [Y9T]
Resp: 2.18
